The origin of these recorded values is ChEMBL document CHEMBL2176876.

- Protocol description: Volume of distribution at steady state in Balb/C mouse at 0.5 mg/kg, iv
- Format: ADME, organism-based
- Parameters: dose 0.5 mg/kg, route intravenous
- Experimental setup: in vivo, read-out: Vdss

- Structure smiles: "Cc1cc(NC(=O)c2cnn3ccc(N)nc23)n(-c2cccc(Cl)c2)n1"
  Vd / L/kg: 0.27

---

- Protocol description: Oral bioavailability in Balb/C mouse at 5 mg/kg
- Type: ADME, organism-based
- Experimental setup: in vivo
Reported metric: bioavailability

- Structure smiles: "Cc1cc(NC(=O)c2cnn3ccc(N)nc23)n(-c2cccc(Cl)c2)n1"
  Observed measurement: "8.6%"

---

- Protocol description: Volume of distribution at steady state in Sprague-Dawley rat at 0.1 to 1 mg/kg, iv
- Assay type: ADME, organism-based
- Parameters: dose 0.1-1 mg/kg, route intravenous
- Experimental setup: in vivo, read-out: Vdss

- Structure smiles: "Cc1cc(NC(=O)c2cnn3ccc(N)nc23)n(-c2cccc(Cl)c2)n1"
  Unit info: "L/kg"
  Vd: 0.185
- Structure smiles: "Cc1cc(NC(=O)c2cnn3cccnc23)n(-c2cccc(Cl)c2)n1"
  Unit info: "L/kg"
  Vd: 0.293
- Structure smiles: "CNc1ccn2ncc(C(=O)Nc3cc(C)nn3-c3cccc(Cl)c3)c2n1"
  Unit info: "L/kg"
  Vd: 0.843
- Structure smiles: "Cn1cc(NC(=O)c2cnn3ccc(N)nc23)c(-c2cc(Cl)ccc2Cl)n1"
  Unit info: "L/kg"
  Vd: 1.08
- Structure smiles: "Cn1cc(NC(=O)c2cnn3cccnc23)c(-c2cccc(Cl)c2)n1"
  Unit info: "L/kg"
  Vd: 0.349
- Structure smiles: "Cn1cc(NC(=O)c2cnn3ccc(N)nc23)c(-c2cccc(Cl)c2)n1"
  Unit info: "L/kg"
  Vd: 0.355

---

List of Papp A→B values.
- Protocol description: Permeability from apical to basolateral side in MDCK cells
- Assay type: ADME, cell-based, Canis lupus familiaris
- Experimental setup: dog, read-out: permeability
Reported metric: Papp A→B (×10⁻⁶ cm/s)

- Structure smiles: "Cc1cc(NC(=O)c2cnn3cccnc23)n(-c2cccc(Cl)c2)n1"
  Observed measurement: 10.5
- Structure smiles: "Cn1cc(NC(=O)c2cnn3ccc(N)nc23)c(-c2cc(Cl)ccc2Cl)n1"
  Observed measurement: 10.5
- Structure smiles: "CNc1ccn2ncc(C(=O)Nc3cc(C)nn3-c3cccc(Cl)c3)c2n1"
  Observed measurement: 15.1
- Structure smiles: "Cc1cc(NC(=O)c2cnn3ccc(N)nc23)n(-c2cccc(Cl)c2)n1"
  Observed measurement: 8.4

---

- Protocol description: Oral bioavailability in Sprague-Dawley rat at 5 mg/kg
- Format: ADME, organism-based
- Experimental setup: in vivo
List of bioavailability values.

- Structure smiles: "Cc1cc(NC(=O)c2cnn3cccnc23)n(-c2cccc(Cl)c2)n1"
  bioavailability / %: 44
- Structure smiles: "Cn1cc(NC(=O)c2cnn3cccnc23)c(-c2cccc(Cl)c2)n1"
  bioavailability / %: 124
- Structure smiles: "Cc1cc(NC(=O)c2cnn3ccc(N)nc23)n(-c2cccc(Cl)c2)n1"
  bioavailability / %: 1
- Structure smiles: "Cn1cc(NC(=O)c2cnn3ccc(N)nc23)c(-c2cc(Cl)ccc2Cl)n1"
  bioavailability / %: 63
- Structure smiles: "Cn1cc(NC(=O)c2cnn3ccc(N)nc23)c(-c2cccc(Cl)c2)n1"
  bioavailability / %: 7
- Structure smiles: "CNc1ccn2ncc(C(=O)Nc3cc(C)nn3-c3cccc(Cl)c3)c2n1"
  bioavailability / %: 30
